The reported measurements were obtained from patent US20050136444A1.

Recorded EC50 by entry
Molecular target: NPFF1 (Homo sapiens, UniProt Q9GZQ6)
Sequence (Q9GZQ6 whole entry, species assumed): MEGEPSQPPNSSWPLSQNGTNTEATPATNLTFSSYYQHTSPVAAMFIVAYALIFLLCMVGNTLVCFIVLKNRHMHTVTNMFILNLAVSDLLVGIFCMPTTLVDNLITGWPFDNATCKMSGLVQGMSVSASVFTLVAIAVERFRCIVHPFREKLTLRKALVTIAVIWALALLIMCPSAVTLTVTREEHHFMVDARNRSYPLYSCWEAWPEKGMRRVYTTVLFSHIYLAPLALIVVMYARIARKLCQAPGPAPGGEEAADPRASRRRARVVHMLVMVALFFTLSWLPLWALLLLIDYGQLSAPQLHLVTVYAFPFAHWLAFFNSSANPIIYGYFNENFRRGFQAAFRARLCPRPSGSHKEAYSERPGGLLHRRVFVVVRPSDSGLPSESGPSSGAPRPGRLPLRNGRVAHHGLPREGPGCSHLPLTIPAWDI
Assay: Receptor Selection and Amplification Technology (R-SAT) functional assay, NPFF1
Assay type: cell-based
Set-up: expressed in transfected cells; host or cells: NIH3T3
Conditions: R-SAT, Table 1; NA = No activity detectable at the highest dose tested (20 μM); read-out: NPFF1 pEC50 (converted)
Counter-ions that a name gives are not always drawn.
REPORTED_PROPERTY: EC50 (µM)

{"COMPOUND": "N=C(N)NN=Cc1ccc(C(F)(F)F)cc1F [Compound 2060, Hydrochloride]", "EXPERIMENTAL_VALUE": 3.98}
{"COMPOUND": "NC(N)=NN=Cc1ccc(Cl)c(C(F)(F)F)c1 [Compound 2035, Hydrochloride]", "EXPERIMENTAL_VALUE": 3.98}
{"COMPOUND": "CCc1ccc(C(C)=NNC(=N)N)cc1 [Compound 3020, Hydrochloride]", "EXPERIMENTAL_VALUE": 3.98}
{"COMPOUND": "CCCCCCc1ccc(C(C)=NNC(=N)N)cc1 [Compound 3023, Hydrochloride]", "EXPERIMENTAL_VALUE": 0.501}
{"COMPOUND": "CCN(CCO)c1ccc(C=NNC(=N)N)c(C)c1 [Compound 3036, Hydrochloride]", "EXPERIMENTAL_VALUE": 1.26}
{"COMPOUND": "COc1cc(Cl)cc(C=NNC(=N)N)c1OC [Compound 2059, Hydrochloride]", "EXPERIMENTAL_VALUE": 10}
{"COMPOUND": "CCN(CC)c1ccc(C=NNC(=N)N)c(O)c1 [Compound 3037, Hydrochloride]", "EXPERIMENTAL_VALUE": 0.794}
{"COMPOUND": "CCN(CC)c1ccc(C=NNC(=N)N)cc1 [Compound 3038, Hydrochloride]", "EXPERIMENTAL_VALUE": 1}
{"COMPOUND": "COc1ccc(C(F)(F)F)cc1C=NNC(=N)N [Compound 2074, Hydrochloride]", "EXPERIMENTAL_VALUE": 10}
{"COMPOUND": "[H]/N=C(\\N)NN=Cc1ccc(Cl)cc1 [Compound 4008, Hydrochloride]", "EXPERIMENTAL_VALUE": 3.98}
{"COMPOUND": "CCCOc1ccc(C=NNC(=N)N)cc1 [Compound 4006, Hydrochloride]", "EXPERIMENTAL_VALUE": 3.98}
{"COMPOUND": "COc1ccc(C=NNC(=N)N)c(C)c1C [Compound 2034, Hydrochloride]", "EXPERIMENTAL_VALUE": 3.98}
{"COMPOUND": "N=C(N)NN=Cc1cc2c(cc1Br)OCO2 [Compound 3015, Hydrochloride]", "EXPERIMENTAL_VALUE": 1}
{"COMPOUND": "CC(C)Oc1ccc(C=NNC(=N)N)cc1", "EXPERIMENTAL_VALUE": 3.98}
{"COMPOUND": "CCOc1ccc(C=NNC(=N)N)cc1 [Compound 4005, Hydrochloride]", "EXPERIMENTAL_VALUE": 10}
{"COMPOUND": "N=C(N)NN=Cc1ccc(C(F)(F)F)cc1 [Compound 4002, Hydrochloride]", "EXPERIMENTAL_VALUE": 3.98}
{"COMPOUND": "N=C(N)NN=Cc1ccc(C(F)(F)F)c(F)c1 [Compound 2063, Hydrochloride]", "EXPERIMENTAL_VALUE": 3.16}
{"COMPOUND": "CCCCC(=NNC(=N)N)c1ccc(N(C)C)cc1 (mixture of isomers)", "EXPERIMENTAL_VALUE": 3.16}
{"COMPOUND": "N=C(N)NN=Cc1cccc(-c2ccccc2C(F)(F)F)c1 [Compound 2058, Hydrochloride]", "EXPERIMENTAL_VALUE": 1}
{"COMPOUND": "COc1ccc(C=NNC(=N)N)c(OC)c1 [Compound 4003, Hydrochloride]", "EXPERIMENTAL_VALUE": 12.6}
{"COMPOUND": "CC(=NNC(=N)N)c1ccc(C)c(C)c1 [Compound 3021, Hydrochloride]", "EXPERIMENTAL_VALUE": 10}
{"COMPOUND": "CC(=NNC(=N)N)c1ccc2c(c1)CCCC2 [Compound 3024, Hydrochloride]", "EXPERIMENTAL_VALUE": 1}

----------
Target: NPFF2 (Homo sapiens, UniProt Q9Y5X5)
Construct: expressed in transfected cells; host or cells: NIH3T3
Sequence (Q9Y5X5 103-522): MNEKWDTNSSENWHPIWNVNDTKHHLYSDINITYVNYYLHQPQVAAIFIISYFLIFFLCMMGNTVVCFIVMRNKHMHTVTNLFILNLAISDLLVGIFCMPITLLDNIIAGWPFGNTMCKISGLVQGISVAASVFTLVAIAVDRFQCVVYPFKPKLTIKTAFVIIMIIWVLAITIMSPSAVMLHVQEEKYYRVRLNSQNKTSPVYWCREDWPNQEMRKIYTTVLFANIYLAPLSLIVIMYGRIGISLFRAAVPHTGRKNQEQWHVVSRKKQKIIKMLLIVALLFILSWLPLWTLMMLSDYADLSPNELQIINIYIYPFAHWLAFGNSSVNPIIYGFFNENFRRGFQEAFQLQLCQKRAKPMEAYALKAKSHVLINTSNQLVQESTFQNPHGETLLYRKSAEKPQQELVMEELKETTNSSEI
Experiment: Receptor Selection and Amplification Technology (R-SAT) functional assay, NPFF2
Assay type: cell-based
Details: R-SAT, Table 1; Efficacy is relative to endogenous ligand; read-out: NPFF2 % Efficacy
Where a name gives a salt, the structure may show the parent alone.
REPORTED_PROPERTY: Emax (%)

{"COMPOUND": "N=C(N)NN=Cc1cccc(-c2ccccc2C(F)(F)F)c1 [Compound 2058, Hydrochloride]", "ASSAYED_SYSTEM": "NPFF2 (Homo sapiens, UniProt Q9Y5X5)", "UNIT_SPEC": "%", "EXPERIMENTAL_VALUE": 60}
{"COMPOUND": "CCc1ccc(C(C)=NNC(=N)N)cc1 [Compound 3020, Hydrochloride]", "ASSAYED_SYSTEM": "NPFF2 (Homo sapiens, UniProt Q9Y5X5)", "UNIT_SPEC": "%", "EXPERIMENTAL_VALUE": 115}
{"COMPOUND": "CC(=NNC(=N)N)c1ccc2c(c1)OCO2 [Compound 3032, Hydrochloride]", "ASSAYED_SYSTEM": "NPFF2 (Homo sapiens, UniProt Q9Y5X5)", "UNIT_SPEC": "%", "EXPERIMENTAL_VALUE": 78}
{"COMPOUND": "COc1ccc(C=NNC(=N)N)c(OC)c1 [Compound 4003, Hydrochloride]", "ASSAYED_SYSTEM": "NPFF2 (Homo sapiens, UniProt Q9Y5X5)", "UNIT_SPEC": "%", "EXPERIMENTAL_VALUE": 41}

----------
Each entry below carries its reported Emax.
Target: NPFF2 (Homo sapiens, UniProt Q9Y5X5)
Construct: expressed in transfected cells; host or cells: NIH3T3
Assay: Receptor Selection and Amplification Technology (R-SAT) functional assay, NPFF2
Assay type: cell-based
Settings: R-SAT, Table 1; Efficacy is relative to endogenous ligand; read-out: NPFF2 % Efficacy
Where a name gives a salt, the structure may show the parent alone.

{"COMPOUND": "CCCCC/C(=N\\NC(=N)N)c1ccc(C)cc1 [Compound 1002]", "UNIT_SPEC": "%", "Emax": 41}
{"COMPOUND": "COc1cccc(C=NNC(=N)N)c1OCc1ccccc1 [Compound 3006, Hydrochloride]", "UNIT_SPEC": "%", "Emax": 47}
{"COMPOUND": "COc1ccc(C(F)(F)F)cc1C=NNC(=N)N [Compound 2074, Hydrochloride]", "UNIT_SPEC": "%", "Emax": 77}
{"COMPOUND": "N=C(N)NN=Cc1ccc(Br)cc1F [Compound 2018, Hydrochloride]", "UNIT_SPEC": "%", "Emax": 53}
{"COMPOUND": "C/C(=N\\NC(=N)N)c1ccccc1 [Compound 1010]", "UNIT_SPEC": "%", "Emax": 51}
{"COMPOUND": "CC(C)Oc1ccc(C=NNC(=N)N)cc1 [Compound 2025]", "UNIT_SPEC": "%", "Emax": 87}
{"COMPOUND": "CCCC/C(=N\\NC(=N)N)c1ccc(O)cc1 [Compound 1004]", "UNIT_SPEC": "%", "Emax": 106}
{"COMPOUND": "Cc1cccc(C=NNC(=N)N)c1 [Compound 3018, Hydrochloride]", "UNIT_SPEC": "%", "Emax": 54}
{"COMPOUND": "Cc1ccc(C=NNC(=N)N)c(C)c1 [Compound 2077, Hydrochloride]", "UNIT_SPEC": "%", "Emax": 61}
{"COMPOUND": "Cc1ccc(C=NNC(=N)N)cc1C [Compound 3019, Hydrochloride]", "UNIT_SPEC": "%", "Emax": 86}
{"COMPOUND": "CCCCC/C(=N/NC(=N)N)c1cccc(C)c1 [Compound 1001]", "UNIT_SPEC": "%", "Emax": 49}
{"COMPOUND": "N=C(N)NN=Cc1ccc(F)c2ccccc12 [Compound 2072, Hydrochloride]", "UNIT_SPEC": "%", "Emax": 50}
{"COMPOUND": "Cc1cc(C=NNC(=N)N)ccc1F [Compound 2012, Hydrochloride]", "UNIT_SPEC": "%", "Emax": 56}

----------
Target: NPFF2 (Homo sapiens)
Construct: expressed in transfected cells; host or cells: NIH3T3
Assay: Receptor Selection and Amplification Technology (R-SAT) functional assay, NPFF2
Format: cell-based
Details: R-SAT, Table 1; Efficacy is relative to endogenous ligand; read-out: NPFF2 % Efficacy
Structures can show the parent of a compound that is named as a salt.
Strictly below 40% in Emax: condition met. Otherwise: condition not met.

{"MOLECULE": "C/C(=N\\NC(=N)N)c1cc(Br)ccc1Br", "GROUP": "condition not met"}
{"MOLECULE": "N=C(N)NN=Cc1ccc(C(F)(F)F)c(F)c1 [Compound 2063, Hydrochloride]", "GROUP": "condition not met"}
{"MOLECULE": "COc1ccc(OC)c(C(C)=NNC(=N)N)c1 (mixture of isomers) [Compound 3029, Hydrochloride]", "GROUP": "condition met"}
{"MOLECULE": "COc1cc(C=NNC(=N)N)cc(OC)c1 [Compound 2007, Hydrochloride]", "GROUP": "condition met"}
{"MOLECULE": "CC(=NNC(=N)N)c1cccc(Br)c1 [Compound 2003, Hydrochloride]", "GROUP": "condition not met"}
{"MOLECULE": "CCOCCOc1ccc(/C=N/NC(=N)N)cc1Cl", "GROUP": "condition not met"}
